target-or-test-system: Rat recombinant KHK-C (Rattus norvegicus (Rat), UniProt Q02974)
Sequence (Q02974 whole entry): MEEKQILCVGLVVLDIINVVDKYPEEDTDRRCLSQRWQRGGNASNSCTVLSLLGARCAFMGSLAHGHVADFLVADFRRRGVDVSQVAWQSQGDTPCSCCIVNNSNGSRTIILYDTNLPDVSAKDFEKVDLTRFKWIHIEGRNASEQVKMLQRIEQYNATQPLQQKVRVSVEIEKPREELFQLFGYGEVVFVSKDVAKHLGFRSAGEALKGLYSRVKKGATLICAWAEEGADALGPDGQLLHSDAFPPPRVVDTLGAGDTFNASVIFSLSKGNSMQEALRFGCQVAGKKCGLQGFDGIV
experiment: KHK inhibition assay, recombinant isozyme (coupled pyruvate kinase/LDH, NADH absorbance 340 nm)
condition: recombinant isozyme 6 nM, fructose 2 mM, ATP 0.1 mM
measurement-label: IC50 (nM)
Give just the numeric value; nM need not be written.

Consider the worked cases shown below.
[
  {
    "compound": "CCc1c(-c2cnn(C3CN(C)C3)c2)nc(N2C[C@@H](O)[C@@H]2C)nc1C(F)(F)F [Compound A11]",
    "IC50 / nM": 2.1
  },
  {
    "compound": "COc1c(-c2cnn(C3CN(C)C3)c2)nc(N2C[C@@H](O)[C@@H]2C)nc1C(F)(F)F [Compound A8]",
    "IC50 / nM": 16
  },
  {
    "compound": "C[C@H]1CCN1c1nc(-c2cnn(CC(=O)N3CCNCC3)c2)c(F)c(C(F)(F)F)n1 [Compound A32]",
    "IC50 / nM": 20
  },
  {
    "compound": "Cc1c(-c2cnn(CC(=O)N3CCNCC3)c2)nc(N2CC[C@@H]2C(F)(F)F)nc1C(F)F [Compound A18]",
    "IC50 / nM": 9.5
  },
  {
    "compound": "Cc1c(-c2cnn(C3CN(C)C3)c2)nc(N2C[C@@H](O)[C@@H]2C)nc1C(F)(F)F [Compound A12]",
    "IC50 / nM": 3.3
  },
  {
    "compound": "O=C(Cn1cc(-c2cc(C(F)(F)F)nc(N3CC[C@@H]3C(F)(F)F)n2)cn1)N1CCNCC1 [Compound A2]",
    "IC50 / nM": 26
  },
  {
    "compound": "CN1CC(n2cc(-c3cc(C(F)(F)F)nc(N4C[C@@H](O)[C@@H]4C(F)(F)F)n3)cn2)C1 (racemic) [Compound A25]",
    "IC50 / nM": 15
  },
  {
    "compound": "Cc1c(-c2cnn(CC(=O)N3CCNCC3)c2)nc(N2CC[C@@H]2C)nc1C(F)(F)F [Compound A3]",
    "IC50 / nM": 8.3
  },
  {
    "compound": "O=C(Cn1cc(-c2nc(N3CC[C@@H]3C(F)F)nc(C(F)(F)F)c2Cl)cn1)N1CCNCC1 [Compound A38]",
    "IC50 / nM": 14
  },
  {
    "compound": "COc1c(-c2cnn(C3CN(C)C3)c2)nc(N2C[C@@H](O)[C@@H]2C)nc1C(F)F [Compound A19]",
    "IC50 / nM": 17
  }
]

Enquiry: For the compound shown here, Cc1c(-c2cnn(C3CNC3)c2)nc(N2C[C@@H](O)[C@@H]2C)nc1C(F)F [Compound A35] , give the reported IC50.
Return: 7.7

Enquiry: For the compound shown here, Cc1c(-c2cnn(CC(=O)N3CCNCC3)c2)nc(N2CC[C@@H]2C(F)(F)F)nc1C(F)(F)F [Compound A1] , give the reported IC50.
Return: 9

Enquiry: For the compound shown here, C[C@H]1[C@H](O)CN1c1nc(-c2cnn(C3CN(C)C3)c2)c(Cl)c(C(F)(F)F)n1 [Compound A10] , give the reported IC50.
Return: 1.1

Enquiry: For the compound shown here, COc1c(-c2cnn(CC(=O)N3CCNCC3)c2)nc(N2CC[C@@H]2C)nc1C(F)(F)F [Compound A5] , give the reported IC50.
Return: 44

Enquiry: For the compound shown here, CCc1c(-c2cnn(CC(=O)N3CCNCC3)c2)nc(N2CC[C@@H]2C)nc1C(F)(F)F [Compound A6] , give the reported IC50.
Return: 11
